Data provenance: patent US11655235B2

- MEASUREMENT_TARGET: DPP4 (Homo sapiens)
- Sequence (P27487 whole entry): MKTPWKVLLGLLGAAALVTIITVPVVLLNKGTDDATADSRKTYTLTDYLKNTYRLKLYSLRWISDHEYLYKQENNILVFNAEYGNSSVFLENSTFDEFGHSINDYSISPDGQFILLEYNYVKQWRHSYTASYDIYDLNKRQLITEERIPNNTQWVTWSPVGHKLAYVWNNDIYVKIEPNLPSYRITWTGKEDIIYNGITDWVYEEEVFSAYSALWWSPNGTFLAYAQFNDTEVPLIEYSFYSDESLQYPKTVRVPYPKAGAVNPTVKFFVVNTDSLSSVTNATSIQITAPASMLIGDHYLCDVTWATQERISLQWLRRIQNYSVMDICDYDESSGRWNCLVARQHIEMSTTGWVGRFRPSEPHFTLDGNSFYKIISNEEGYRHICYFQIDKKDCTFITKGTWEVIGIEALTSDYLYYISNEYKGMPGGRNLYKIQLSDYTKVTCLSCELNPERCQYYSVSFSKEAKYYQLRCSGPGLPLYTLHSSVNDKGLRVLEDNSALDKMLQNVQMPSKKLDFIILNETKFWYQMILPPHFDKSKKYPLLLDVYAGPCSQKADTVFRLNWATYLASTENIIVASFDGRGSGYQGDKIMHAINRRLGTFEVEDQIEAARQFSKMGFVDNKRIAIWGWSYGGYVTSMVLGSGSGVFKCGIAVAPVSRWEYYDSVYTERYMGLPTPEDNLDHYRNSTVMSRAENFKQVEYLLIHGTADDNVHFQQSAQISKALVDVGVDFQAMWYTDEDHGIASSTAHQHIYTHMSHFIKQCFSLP
- ASSAY_SUMMARY: DPP4 inhibition, fluorogenic substrate H-Gly-Pro-AMC
- Assay type: biochemical
- Design: purchased R&D Systems
- CONDITION_NOTES: read-out: hDPP4 inhibition % at 1 μM
- Protocol: The compounds according to the present technology were evaluated in terms of the inhibitory effect on the activity of dipeptidyl peptidases including FAP by using a substrate producing fluorescent substances upon enzymatic decomposition. […] Fluorescence intensity was measured using a microplate reader (Flexstation3, Molecular Devices) under the wavelength condition exciting at 380 nm and reading the emission at 460 nm. […]
Kindly supply the reported inhibition at 1 µM values for the records listed here.
Give bare numbers, in %.

Return inhibition at 1 µM (reported value) for this molecule: N#C[C@@H]1CCCN1C(=O)CN1CC[C@H](Oc2ccc(Oc3ccccc3)cc2)C1
6.9

Report inhibition at 1 µM for each item below.
1. N#C[C@@H]1CCCN1C(=O)CN1CC[C@H](Nc2cccc3ccoc23)C1
2. N#C[C@@H]1C[C@@H]2C[C@@H]2N1C(=O)CN1CCC(Nc2cccc3ncccc23)CC1
3. N#C[C@@H]1CCCN1C(=O)CN1CC[C@H](Oc2ccc3c(c2)CCC(=O)N3)C1
4. COc1ccc2c(C(=O)N[C@H]3CCN(CC(=O)N4CCC[C@H]4C#N)C3)coc2c1
5. N#C[C@@H]1CC(F)(F)CN1C(=O)CN1CCC(Nc2cccc3ncccc23)CC1
6. N#C[C@@H]1CCCN1C(=O)CN1CC[C@@H](C(=O)Nc2cnc3ccccc3c2)C1
7. N#C[C@@H]1CCCN1C(=O)CN1CC[C@H](Oc2ccnc3cc(C(F)(F)F)ccc23)C1

1. 4.2
2. 1.4
3. 0.4
4. 2
5. 15.7
6. 4.4
7. 6.9
